EXPERIMENTAL TARGET: glucocorticoid receptor (GR) recombinant ligand binding domain (LBD) (Homo sapiens (Human))
Sequence (P04150 524-758): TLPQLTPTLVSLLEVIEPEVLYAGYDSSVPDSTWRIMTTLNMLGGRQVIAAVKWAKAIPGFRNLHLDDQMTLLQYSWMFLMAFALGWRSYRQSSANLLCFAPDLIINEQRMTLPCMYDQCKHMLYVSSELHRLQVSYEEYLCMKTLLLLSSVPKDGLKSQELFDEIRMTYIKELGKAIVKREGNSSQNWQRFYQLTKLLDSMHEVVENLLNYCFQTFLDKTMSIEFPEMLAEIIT
ASSAY REMARKS: GR binding fluorescence polarisation (FP) assay
CONDITION DETAILS: displacement of fluorescently tagged ligand
Hi there, I'd appreciate the recorded pIC50 for every entry that follows.
Numbers only, as −log10 of the molar value.

• Cc1cc2c(cnn2-c2ccc(F)c(C#N)c2)cc1C1(Cc2ccccc2)CCN(S(=O)(=O)c2cnn(C)n2)C1 (stereo not shown) [Example 239] = 7.55
• Cc1cc2c(cnn2-c2ccc(F)cc2)cc1C1(Cc2ccc(C(F)F)nc2)CCN(S(=O)(=O)c2cnn(C)c2)C1 (stereo not shown) [Example 171] = 7.17
• CS(=O)(=O)N1C[C@@H]2C[C@H]1CN2c1ccc2c(cnn2-c2ccc(F)cc2)c1 [Example 47] = 5.85
• Cc1cc2c(cnn2-c2ccc(F)cc2)cc1C1(Cc2ccccc2)CCN(S(C)(=O)=O)C1 (stereo not shown) [Example 16] = 8.10

The following molecules each have a reported value; give each one's pIC50.
1. C[C@@H]1CN(c2ccc3c(cnn3-c3ccc(F)cc3)c2)CCN1S(=O)(=O)c1cnn(CC2CC2)c1 [Example 39]
2. [2H]C([2H])([2H])n1cc(-n2ncc3cc(C4(Cc5ccccc5)CCN(S(=O)(=O)c5cnn(C)n5)C4)c(C)cc32)ccc1=O (stereo not shown) [Example 261]
3. C[C@@H]1CN(S(=O)(=O)C2CCCC2)CCN1c1ccc2c(cnn2-c2ccc(F)cc2)c1 [Example 35]

[7.09, 8.54, 5.74]

* * *

EXPERIMENTAL TARGET: glucocorticoid receptor (GR) recombinant ligand binding domain (LBD) (Homo sapiens (Human))
ASSAY REMARKS: GR binding fluorescence polarisation (FP) assay
CONDITION DETAILS: displacement of fluorescently tagged ligand
Hi there, I'd appreciate the recorded pIC50 for every entry that follows.
Answers are plain numbers, as −log10 of the molar value.

- CCCn1cc(S(=O)(=O)N2CC[C@H](c3ccc4c(cnn4-c4ccc(F)cc4)c3)C[C@H]2C)cn1: 6.67
- Cc1cncc(S(=O)(=O)N2CCC(Cc3ccccc3)(c3cc4cnn(-c5ccc(=O)n(C)c5)c4cc3C)C2)c1 (stereo not shown): 7.96
- C[C@H]1CN(S(=O)(=O)c2cnn(C)c2)CCN1c1ccc2c(cnn2-c2ccc(F)cc2)c1: 5.45

Attention now turns to another entry.
For record CCCn1cc(S(=O)(=O)N2CCN(c3ccc4c(cnn4-c4ccc(F)cc4)c3C)C[C@H]2C)cn1 the listed pIC50 is 5.08

* * *

EXPERIMENTAL TARGET: glucocorticoid receptor (GR) recombinant ligand binding domain (LBD) (Homo sapiens (Human))
ASSAY REMARKS: GR binding fluorescence polarisation (FP) assay
CONDITION DETAILS: displacement of fluorescently tagged ligand
REPORTED ENDPOINT: IC50

These recorded examples may help you get a feel for the data.
* Cc1cc2c(cnn2-c2ccc(F)cc2)cc1C1(Cc2ccccc2)CCN(C(=O)c2cncs2)C1 (stereo not shown) | 0.01 µM
* CCCS(=O)(=O)N1CCN(c2ccc3c(cnn3-c3ccc(F)cc3)c2)C[C@H]1C | 0.27 µM

The following molecules each have a reported value; give each one's IC50.
1. CS(=O)(=O)N1CC2CC(C1)N2c1ccc2c(cnn2-c2ccc(F)cc2)c1
2. Cc1cc2c(cnn2-c2ccc(F)cc2)cc1C1(Cc2ccccc2)CCN(S(=O)(=O)c2ccn(C)n2)C1 (stereo not shown)

["4.05 µM", "0.01 µM"]
